Source: PubChem BioAssay

- assaySystem: Calmodulin-1 (Homo sapiens)
- methodNotes: calcium-bound CALM1 binders on microarrays, profiling panel, artefact control for SMM control-protein annotation, biochemical, small-molecule microarray, Cy5-labelled CALM1, plus calcium (AID 1112);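 also: score merges spot fluorescence with signal to noise from triplicate slides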
- conditionSet: Cy5-CALM1 binding fluorescence, higher = more signal
measuredEndpoint: composite z-score

Below are worked cases with known answers.
{"compound": "NC(=O)NCC#Cc1ccc2c(c1)[C@]1(C(=O)N2)[C@H](C(=O)Nc2nc3ccccc3s2)[C@H]2C(=O)O[C@H](c3ccccc3)[C@H](c3ccccc3)N2[C@@H]1c1ccc(OCCO)cc1", "measuredEndpoint": "composite z-score", "observedValue": 0.417}
{"compound": "CC(C)C[C@@H]1NC(=O)[C@H]2C[C@@H](C(=O)NCCCCCNC(=O)CS)[C@@H](c3ccc(O)cc3)N2C1=O", "measuredEndpoint": "composite z-score", "observedValue": -0.568}
{"compound": "COc1ccc([Si](C)(C)[C@@H]2[C@@H](CCO)O[C@]3(C(=O)N(Cc4ccccc4)c4ccc(N5C(=O)c6ccccc6Oc6ccccc65)cc43)[C@H]2C)cc1", "measuredEndpoint": "composite z-score", "observedValue": 0.925}
{"compound": "CC(C)C[C@H]1NC(=O)[C@H](Cc2ccccc2)NC(=O)[C@@]23C(=O)N[C@@H](Cc4ccccc4)C2[C@H](C)[C@@]2(C)O[C@H]2C3/C=C/C/C=C\\CNC1=O (stereo partly specified)", "measuredEndpoint": "composite z-score", "observedValue": 0.263}
{"compound": "COCCOC(=O)N1C(=O)[C@@]2(c3cc(C#CCCO)ccc31)[C@H](c1ccc(O)cc1)N1[C@H](c3ccccc3)[C@H](c3ccccc3)OC(=O)[C@H]1[C@@H]2C(=O)N1CCc2cc(OC)c(OC)cc2C1", "measuredEndpoint": "composite z-score", "observedValue": -0.0529}

**Query** Report composite z-score for `CN(C)CCCC[C@@H]1NC(=O)[C@H]2C[C@@H](C(=O)NCc3ccc(F)cc3)[C@@H](c3ccc(O)cc3)N2C1=O` please.
**Result** 0.354

----------
- methodNotes: basal RPMI8226 viability, no added stimulus, profiling panel, cell-based, calcein-AM fluorescence, 48 h, PK04 Diversity Set (AID 1166);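 also: cells grown under basal conditions without added stimulus; test concentration not given here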
- conditionSet: RPMI8226 myeloma viability, higher = more signal
measuredEndpoint: z-score

{"molecule": "C=CCC(OC(C)=O)[C@@H]1[C@@H](N(Cc2ccc(-c3cccc(C(F)(F)F)c3)o2)C(=O)Cc2ccc(OC)cc2)c2cc(OCCCO)ccc2N1C(=O)c1ccc2ccccc2n1 (some centres not stated)", "z-score": -2.3}
{"molecule": "O=C1O[C@@H](c2ccccc2)[C@@H](c2ccccc2)N2[C@@H](c3ccc(OCCO)cc3)[C@]3(C(=O)Nc4ccc(C#CCCO)cc43)[C@@H](C(=O)Nc3nc4ccccc4s3)[C@H]12", "z-score": -0.0767}
{"molecule": "COc1ccc(NN2C(C(O)c3ccc(OC)cc3)C=CC3C(=O)N(C4CCCCC4)C(=O)C32)cc1 (configuration not stated)", "z-score": -0.512}

Quick batch: z-score for everything below.
1. CCC[C@@H]1C=C(C(=O)OCC)[C@H](c2ccccc2)N1S(=O)(=O)c1ccc(C)cc1
2. COCCOC(=O)N1C(=O)[C@@]2(c3cc(C#CCC(C(=O)OC)C(=O)OC)ccc31)[C@H](C(=O)N1CCc3cc(OC)c(OC)cc3C1)[C@H]1C(=O)O[C@H](c3ccccc3)[C@H](c3ccccc3)N1[C@@H]2c1ccc(O)cc1
3. O=C(NCCO)C1=C[C@H](Oc2ccccc2I)[C@@H](O)[C@H](NCc2ccc(F)cc2)C1
4. CC(=O)NCCCC[C@@H]1NC(=O)[C@@H]2C[C@H](C(=O)NCCCCCC[N+](C)(C)C)[C@H](c3ccc(O)cc3)N2C1=O

**Result**
[-2.96, -1.54, -1.26, -0.539]
